EXPERIMENT_DESCRIPTION: xn = mol fraction of the nth substance listed, in the solute-free solvent
ASSAY_SETUP: 318.15 K; x2 = 0.9
Rule: Fulfilled for solubility (g/100 g solution) not less than 5, Not fulfilled for anything less.

compound="COC1=CC(=O)CC(C)C12Oc1c(Cl)c(OC)cc(OC)c1C2=O (stereo not given) + CCC(C)=O + CC(C)O" qualitative_label="Not fulfilled"
compound="COC1=CC(=O)CC(C)C12Oc1c(Cl)c(OC)cc(OC)c1C2=O (stereo not given) + CC(C)=O + CC(C)O" qualitative_label=Fulfilled
compound="CCCCOc1ccc(C(=O)CCN2CCCCC2)cc1.Cl + CCO + CCOC(C)=O" qualitative_label=Fulfilled
compound="O=C(O)c1ccc(C(=O)O)o1 + C1CCOC1 + O" qualitative_label="Not fulfilled"

* * *

EXPERIMENT_DESCRIPTION: xn = mol fraction of the nth substance listed, in the solute-free solvent
ASSAY_SETUP: 298.15 K; x2 = 0.4
PROPERTY_LABEL: solubility (g/100 g solution)

compound="O=C1CCc2ccc(OCCCCN3CCN(c4cccc(Cl)c4Cl)CC3)cc2N1 + CCC(C)=O + CCOC(C)=O" recorded_result=1.61
compound="CCCCOc1ccc(C(=O)CCN2CCCCC2)cc1.Cl + CO + C1CCOC1" recorded_result=24.6
compound="CCCCOc1ccc(C(=O)CCN2CCCCC2)cc1.Cl + CCO + O" recorded_result=45.7
compound="CCCCOc1ccc(C(=O)CCN2CCCCC2)cc1.Cl + CCO + CCOC(C)=O" recorded_result=18.9
compound="O=C1CCc2ccc(OCCCCN3CCN(c4cccc(Cl)c4Cl)CC3)cc2N1 + CCC(C)=O + CCCO" recorded_result=3.21

* * *

List of solubility (g/100 g solution) values.
EXPERIMENT_DESCRIPTION: xn = mol fraction of the nth substance listed, in the solute-free solvent
ASSAY_SETUP: 333.15 K; x2 = 0.7
PROPERTY_LABEL: solubility (g/100 g solution)

compound="O=C(O)c1ccc(C(=O)O)o1 + O + COCCOCCOC" recorded_result=7.93
compound="O=C(O)c1ccc(C(=O)O)o1 + C1CCOC1 + O" recorded_result=8.9
compound="O=C(O)c1ccc(C(=O)O)o1 + O + COCCOC" recorded_result=7.24
compound="O=C(O)c1ccc(C(=O)O)o1 + C1COCCO1 + O" recorded_result=4.48

* * *

EXPERIMENT_DESCRIPTION: xn = mol fraction of the nth substance listed, in the solute-free solvent
ASSAY_SETUP: 303.15 K; x2 = 0.2
Hi, to clarify the labels: true (1) covers solubility (g/100 g solution) from 2 upward, false (0) covers anything below 2.

compound="O=C1CCc2ccc(OCCCCN3CCN(c4cccc(Cl)c4Cl)CC3)cc2N1 + CCC(C)=O + CCCO" qualitative_label="true (1)"
compound="O=C(O)c1ccc(C(=O)O)o1 + O + COCCOC" qualitative_label="true (1)"
compound="COC1=CC(=O)CC(C)C12Oc1c(Cl)c(OC)cc(OC)c1C2=O (stereo not given) + CC(=O)CC(C)C + CC(C)O" qualitative_label="false (0)"
compound="O=C1CCc2ccc(OCCCCN3CCN(c4cccc(Cl)c4Cl)CC3)cc2N1 + CCC(C)=O + CC(C)=O" qualitative_label="true (1)"
compound="COC1=CC(=O)CC(C)C12Oc1c(Cl)c(OC)cc(OC)c1C2=O (stereo not given) + CCC(C)=O + CC(C)O" qualitative_label="false (0)"

* * *

EXPERIMENT_DESCRIPTION: xn = mol fraction of the nth substance listed, in the solute-free solvent
ASSAY_SETUP: 308.15 K; x2 = 0.7
Hi, to clarify the labels: 1.0 covers solubility (g/100 g solution) from 5 upward, 0.0 covers anything below 5.

molecule="O=C(O)c1ccc(C(=O)O)o1 + C1COCCO1 + O" qualitative_label=0.0
molecule="CC(=O)OC(c1ccccc1)C(Cl)(Cl)Cl (stereo not given) + CC(=O)O + O" qualitative_label=1.0
molecule="O=C1CCc2ccc(OCCCCN3CCN(c4cccc(Cl)c4Cl)CC3)cc2N1 + CCC(C)=O + CCOC(C)=O" qualitative_label=0.0
molecule="CCCCOc1ccc(C(=O)CCN2CCCCC2)cc1.Cl + CO + C1CCOC1" qualitative_label=1.0

* * *

EXPERIMENT_DESCRIPTION: xn = mol fraction of the nth substance listed, in the solute-free solvent
ASSAY_SETUP: 318.15 K; x2 = 0.6
Decision: solubility (g/100 g solution) >= 7 yields satisfied, all other cases yield not satisfied.

compound="O=C1CCc2ccc(OCCCCN3CCN(c4cccc(Cl)c4Cl)CC3)cc2N1 + CCC(C)=O + CC(C)=O" qualitative_label="not satisfied"
compound="COC1=CC(=O)CC(C)C12Oc1c(Cl)c(OC)cc(OC)c1C2=O (stereo not given) + CC(C)=O + CC(C)O" qualitative_label="not satisfied"
compound="CCCCOc1ccc(C(=O)CCN2CCCCC2)cc1.Cl + CCO + O" qualitative_label=satisfied

* * *

EXPERIMENT_DESCRIPTION: xn = mol fraction of the nth substance listed, in the solute-free solvent
ASSAY_SETUP: 333.15 K; x2 = 0.4
PROPERTY_LABEL: solubility (g/100 g solution)

molecule="O=C(O)c1ccc(C(=O)O)o1 + C1CCOC1 + O" recorded_result=9.02
molecule="O=C(O)c1ccc(C(=O)O)o1 + O + COCCOCCOC" recorded_result=5.23
molecule="O=C(O)c1ccc(C(=O)O)o1 + O + COCCOC" recorded_result=6.11
molecule="O=C(O)c1ccc(C(=O)O)o1 + C1COCCO1 + O" recorded_result=6.72

* * *

EXPERIMENT_DESCRIPTION: xn = mol fraction of the nth substance listed, in the solute-free solvent
ASSAY_SETUP: 333.15 K; x2 = 0.8
Reported solubility (g/100 g solution) by item:
PROPERTY_LABEL: solubility (g/100 g solution)

compound="O=C(O)c1ccc(C(=O)O)o1 + C1CCOC1 + O" recorded_result=7.47
compound="O=C(O)c1ccc(C(=O)O)o1 + C1COCCO1 + O" recorded_result=3.55
compound="O=C(O)c1ccc(C(=O)O)o1 + O + COCCOCCOC" recorded_result=7.36
compound="O=C(O)c1ccc(C(=O)O)o1 + O + COCCOC" recorded_result=6.13

* * *

Listing of entries alongside the reported solubility (g/100 g solution).
EXPERIMENT_DESCRIPTION: xn = mol fraction of the nth substance listed, in the solute-free solvent
ASSAY_SETUP: 293.15 K; x2 = 0.5
PROPERTY_LABEL: solubility (g/100 g solution)

molecule="O=C1CCc2ccc(OCCCCN3CCN(c4cccc(Cl)c4Cl)CC3)cc2N1 + CCC(C)=O + CCCO" recorded_result=3.03
molecule="CCCCOc1ccc(C(=O)CCN2CCCCC2)cc1.Cl + CCO + CCCCCC" recorded_result=18.6
molecule="CC(=O)OC(c1ccccc1)C(Cl)(Cl)Cl (stereo not given) + CCO + O" recorded_result=0.744
molecule="CCCCOc1ccc(C(=O)CCN2CCCCC2)cc1.Cl + CCO + O" recorded_result=42
molecule="CCCCOc1ccc(C(=O)CCN2CCCCC2)cc1.Cl + CO + C1CCOC1" recorded_result=28

* * *

EXPERIMENT_DESCRIPTION: xn = mol fraction of the nth substance listed, in the solute-free solvent
ASSAY_SETUP: 278.15 K; x2 = 0.9
Decision: solubility (g/100 g solution) >= 30 yields MET, all other cases yield NOT MET.

molecule="O=C1CCc2ccc(OCCCCN3CCN(c4cccc(Cl)c4Cl)CC3)cc2N1 + CCC(C)=O + CCCO" qualitative_label="NOT MET"
molecule="CCCCOc1ccc(C(=O)CCN2CCCCC2)cc1.Cl + CCO + CCCCCC" qualitative_label="NOT MET"
molecule="O=C1CCc2ccc(OCCCCN3CCN(c4cccc(Cl)c4Cl)CC3)cc2N1 + CCC(C)=O + CC(C)=O" qualitative_label="NOT MET"
molecule="CCCCOc1ccc(C(=O)CCN2CCCCC2)cc1.Cl + CO + C1CCOC1" qualitative_label=MET
molecule="O=C1CCc2ccc(OCCCCN3CCN(c4cccc(Cl)c4Cl)CC3)cc2N1 + CCC(C)=O + CCOC(C)=O" qualitative_label="NOT MET"
molecule="CCCCOc1ccc(C(=O)CCN2CCCCC2)cc1.Cl + CCO + O" qualitative_label=MET
molecule="CCCCOc1ccc(C(=O)CCN2CCCCC2)cc1.Cl + CCO + CCOC(C)=O" qualitative_label="NOT MET"

* * *

EXPERIMENT_DESCRIPTION: xn = mol fraction of the nth substance listed, in the solute-free solvent
ASSAY_SETUP: 328.15 K; x2 = 0.6
PROPERTY_LABEL: solubility (g/100 g solution)

compound="CC(=O)OC(c1ccccc1)C(Cl)(Cl)Cl (configuration not stated) + CC(C)O + O" recorded_result=19.1
compound="O=C(O)c1ccc(C(=O)O)o1 + C1COCCO1 + O" recorded_result=5.3
compound="O=C(O)c1ccc(C(=O)O)o1 + C1CCOC1 + O" recorded_result=9.01
compound="O=C(O)c1ccc(C(=O)O)o1 + O + COCCOCCOC" recorded_result=7.62
compound="CC(=O)OC(c1ccccc1)C(Cl)(Cl)Cl (configuration not stated) + CCO + O" recorded_result=13.9
compound="O=C(O)c1ccc(C(=O)O)o1 + O + COCCOC" recorded_result=7.49
compound="CC(=O)OC(c1ccccc1)C(Cl)(Cl)Cl (configuration not stated) + CC(=O)O + O" recorded_result=13.4
